molecular target: BdRDL (GABA receptor subunit RDL) (Bactrocera dorsalis, UniProt A0ABM3JZQ9); construct: full-length ORF, 596 amino acids (GenBank XM_049458762), homomeric receptor expressed in Xenopus oocytes; assay: two-electrode voltage clamp in Xenopus oocytes, agonist-induced currents
Sequence (A0ABM3JZQ9 1-596): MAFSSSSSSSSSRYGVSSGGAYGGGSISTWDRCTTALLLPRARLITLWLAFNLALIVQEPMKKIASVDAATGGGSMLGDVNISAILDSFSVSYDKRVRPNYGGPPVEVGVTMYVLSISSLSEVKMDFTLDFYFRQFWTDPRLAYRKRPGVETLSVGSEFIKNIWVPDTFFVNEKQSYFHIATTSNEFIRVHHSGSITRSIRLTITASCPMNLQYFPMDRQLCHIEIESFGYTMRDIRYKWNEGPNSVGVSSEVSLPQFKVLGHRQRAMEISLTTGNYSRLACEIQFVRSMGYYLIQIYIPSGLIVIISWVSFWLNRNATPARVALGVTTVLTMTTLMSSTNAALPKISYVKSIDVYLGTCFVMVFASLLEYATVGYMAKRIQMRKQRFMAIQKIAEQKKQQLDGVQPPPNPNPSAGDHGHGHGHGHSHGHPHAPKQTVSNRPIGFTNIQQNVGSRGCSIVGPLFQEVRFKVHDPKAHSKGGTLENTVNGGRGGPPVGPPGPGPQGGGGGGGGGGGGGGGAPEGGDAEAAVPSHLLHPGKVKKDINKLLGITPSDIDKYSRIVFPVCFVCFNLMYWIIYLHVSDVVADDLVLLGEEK
reported.metric: pEC50
In plain terms, pEC50 is the concentration in mol/L turned into minus its base-10 logarithm.

Bench note, BdRDL (GABA receptor subunit RDL) (Bactrocera dorsalis, UniProt A0ABM3JZQ9): entry NCCCC(=O)O [GABA] , its pEC50 = 3.62

* * *

target: BdRDL (GABA receptor subunit RDL) (Bactrocera dorsalis, UniProt A0ABM3JZQ9); construct: full-length ORF, 596 amino acids (GenBank XM_049458762), homomeric receptor expressed in Xenopus oocytes; assay: two-electrode voltage clamp in Xenopus oocytes, inhibition of GABA (EC50)-induced currents
reported.metric: pIC50
In plain terms, pIC50 is the concentration in mol/L turned into minus its base-10 logarithm.

The measured pIC50 that Cc1cc(C2=NOC(c3cc(Cl)cc(Cl)c3)(C(F)(F)F)C2)ccc1C(=O)NCC(=O)NCC(F)(F)F (racemic) showed for BdRDL (GABA receptor subunit RDL) (Bactrocera dorsalis, UniProt A0ABM3JZQ9) is 6.82
